# Settings: pH 6.8
Observed Property: aqueous solubility (mg/mL)

Consider the following illustrative entries.
CC(C)c1nnc(CNC(=O)C2(C)CCC2)n1C: 0.0518
COc1cc(CN(C)C(=O)Nc2cccc(C)c2C)ccc1O: 0.0518
CCCCOc1ccc(C(=O)NCc2cc(C)on2)cc1: 0.0042

P = O=C(O)c1ccc(Nc2ncc3c(n2)-c2ccc(Cl)cc2C(c2c(F)cccc2F)=NC3)cc1
Q = CCN(C/C=C/c1ccc(F)cc1)Cc1nc(COC)no1
R = N#Cc1ccc(COc2cnc3ccccc3n2)cc1
Please list these in order of increasing aqueous solubility. Thank you! Return the labels ranked in the requested order, please.
R, Q, P

I = FC(F)(F)c1nccc(NCCSc2nc3ccccc3o2)n1
II = Cc1cc(C)c(S(=O)(=O)Nc2ccc(N(C)C)cc2)c(C)c1-n1cnnn1
# return whichever of I and II has the smaller aqueous solubility Respond using the label that marks the chosen record.
II
(II: 0.00273 mg/mL, I: 0.0449 mg/mL)

A = Cc1cccc(C)c1OCC(=O)N(C)C1(C#N)CCC1
B = Cc1cc(CNc2ncc(C(F)(F)F)cc2Cl)no1
C = Cc1ccc(-c2nc(CC(=O)NCCC(C)C)cs2)cc1
D = COc1cccc(-c2cccc(N)n2)c1F
E = COc1cc2nc(/C=C/c3cocn3)sc2cc1OC
Arrange the 5 compounds from largest to smallest aqueous solubility. Return value: ordered labels per request.
A, B, D, E, C
(A: 0.0561 mg/mL, B: 0.0268 mg/mL, D: 0.0182 mg/mL, E: 0.0124 mg/mL, C: 0.00817 mg/mL)

I = CC1(C(=O)O)CCN(Cc2ccccc2)CC1
II = Cc1cc(C(=O)O)c2ccc(F)cc2n1
Please indicate which item has the smaller measured aqueous solubility: I versus II Provide the label of your selected option as the answer.
II

a = CC(C)c1nc2c(n1C)CCN(c1ncnc3ccccc13)C2
b = Clc1ccc2[nH]c(COc3ccccc3)nc2c1
c = O=C(Nc1ccc2c3c(cccc13)CC2)c1ccnc(-n2cncn2)c1
d = Cc1nnc(NC(=O)c2nn(-c3ccc(F)cc3)c3c2CCCC3)s1
Sort the compounds on aqueous solubility; start with the lowest figure. I would appreciate it if you listed the labels in the requested order.
d, c, b, a

a = C#CCN1CCC[C@H]1C(=O)Nc1cnn(-c2ncccn2)c1
b = C#CCNC(=O)c1ccc2c(c1)OCO2
c = CCc1nnc(NC(=O)c2ccc3cc(OC)ccc3n2)s1
d = Cc1cc(C(=O)N(C)C2CCC2)n2nccc2n1
Returns the items ordered by aqueous solubility, from maximum to minimum. Reply with the labels, ordered as the question asks.
d, a, b, c

I = CN1CCc2nc(NC(=O)c3ccc(Cl)s3)sc2C1
II = Cc1cc(NCc2ccnc(N3CCCC3)c2)c2ccccc2n1
// compare: I vs II , metric aqueous solubility, want the smaller Identify your selection by its label.
II
(II: 0.0322 mg/mL, I: 0.0488 mg/mL)

A = CC(=O)c1c(C)c2cnc(Nc3ccc(N4CCNCC4)cn3)nc2n(C2CCCC2)c1=O
B = Cc1cc(NC(=O)c2cccs2)no1
C = O=C1CCCN1CCCN1CCC(n2c(=O)[nH]c3ccccc32)CC1
Order each entry by recorded aqueous solubility, climbing from the minimum. // respond by listing labels in the order requested
C, B, A

Ref: the Biogen ADME set (Fang et al. 2023)
